The measurements presented in this section are drawn from patent USRE32455E.

- Test system: S. roseosporus
- PROTOCOL DESCRIPTION: Antibiotic sensitivity, sensitivity discs on seeded agar plates; further: key: +: sensitive (zones of inhibition); -: resistant (no zones of inhibition)
- Type: cell-based, Streptomyces roseosporus
- STUDY CONDITIONS: Conc./disc: erythromycin 15 μg, cephalothin 30 μg, lincomycin 2 μg, nystatin 100 units, polymyxin B 300 units, streptomycin 10 μg, tetracycline 30 μg, vancomycin "+μg"
QUANTITY MEASURED: Antibiotic sensitivity

COMPOUND: CC(=O)OCC1=C(C(=O)O)N2C(=O)[C@@H](NC(=O)Cc3cccs3)[C@H]2SC1
MEASURED RESULT: +

COMPOUND: CC[C@H]1OC(=O)[C@H](C)[C@@H](O[C@H]2C[C@@](C)(OC)[C@@H](O)[C@H](C)O2)[C@H](C)[C@@H](O[C@@H]2O[C@H](C)C[C@H](N(C)C)[C@H]2O)[C@](C)(O)C[C@@H](C)C(=O)[C@H](C)[C@@H](O)[C@]1(C)O [Erythromycin, reference compound]
MEASURED RESULT: +

COMPOUND: [H]/N=C(/N)N[C@H]1[C@H](O)[C@@H](O)[C@H](O[C@@H]2O[C@@H](C)[C@](O)(C=O)[C@H]2O[C@@H]2O[C@@H](CO)[C@H](O)[C@@H](O)[C@@H]2NC)[C@@H](N/C(N)=N\[H])[C@@H]1O
MEASURED RESULT: +

COMPOUND: CN(C)C1C(=O)C(C(N)=O)=C(O)C2(O)C(=O)C3=C(O)c4c(O)cccc4C(C)(O)C3CC12 (stereo not shown)
MEASURED RESULT: +

COMPOUND: CN[C@H](CC(C)C)C(=O)N[C@H]1C(=O)N[C@@H](CC(N)=O)C(=O)N[C@H]2C(=O)N[C@H]3C(=O)N[C@H](C(=O)N[C@H](C(=O)O)c4cc(O)cc(O)c4-c4cc3ccc4O)[C@H](O)c3ccc(c(Cl)c3)Oc3cc2cc(c3O[C@@H]2O[C@H](CO)[C@@H](O)[C@H](O)[C@H]2O[C@H]2C[C@](C)(N)[C@H](O)[C@H](C)O2)Oc2ccc(cc2Cl)[C@H]1O [Vancomycin, reference compound]
MEASURED RESULT: +

COMPOUND: C[C@@H]1[C@H](O)[C@@H](C)/C=C/C=C/CC/C=C/C=C/C=C/C=C/C(O[C@H]2O[C@H](C)[C@@H](O)[C@H](N)[C@@H]2O)CC2O[C@](O)(CC(O)C(O)CCC(O)CC(O)CC(O)CC(=O)O[C@H]1C)CC(O)C2C(=O)O (stereo partly shown)
MEASURED RESULT: -

Report Antibiotic sensitivity for `CCC[C@@H]1C[C@@H](C(=O)N[C@@H]([C@H]2O[C@H](SC)[C@H](O)[C@@H](O)[C@H]2O)[C@@H](C)O)N(C)C1` tested on S. roseosporus.
-
